Reference source for all entries: paper PMC11704248

studySystem: iASPP CTD (UniProt Q8WUF5)
Sequence (Q8WUF5 625-828): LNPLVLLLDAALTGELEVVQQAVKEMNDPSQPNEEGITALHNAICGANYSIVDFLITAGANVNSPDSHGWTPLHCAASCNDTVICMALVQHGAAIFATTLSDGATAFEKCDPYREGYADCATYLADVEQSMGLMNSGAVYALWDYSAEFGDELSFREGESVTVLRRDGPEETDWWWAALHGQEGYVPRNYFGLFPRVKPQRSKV
protocolDescription: ITC; peptide or DBD titrated to ASPP CTD; VP-ITC; 25 mM HEPES pH 7.5, 150 mM NaCl, 500 µM TCEP; AB hetero association (single-site) model
propertyName: pKd
Worth noting: pKd values are minus log10 of concentrations stated in mol/L.

Recorded result, GDGTKRPFRQN [p63 linker peptide] , pKd: 4.05
